Hey, just so you know, these numbers are from patent US7868135B2.

- Tested on: E. faecalis EFS0040 (clinical isolate)
- test-name: Intraperitoneal murine model of protection against infection (ED50, Table 21)
- Type: in vivo, Enterococcus faecalis
- condition-details: Swiss CD1 mice infected i.p., compound i.v.
observable: ED50 in Mice, E. faecalis (EFS0040) (mg/kg)
Field: numeric (mg/kg). Do not append units.

Recorded results for 3 compounds are shown here.
>  <compound>
CCCCCCCCCCCCCCNC(=O)NC(CC(=O)O)C(=O)NC1C(=O)N2CCCCC2C(=O)NC(C(C)C(=O)O)C(=O)NC(CC(=O)O)C(=O)NCC(=O)NC(CC(=O)O)C(=O)NCC(=O)NC(C(C)NC(=O)CCN)C(=O)NC(C(C)C)C(=O)N2CCCC2C(=O)NC1C (centres unmarked)

>  <observable>
ED50 in Mice, E. faecalis (EFS0040)

>  <result-units>
mg/kg

>  <recorded-result>
5.3

$$$$
>  <compound>
CCCCCCCCCCCCCCC(=O)NC(CC(=O)O)C(=O)NC1C(=O)N2CCCCC2C(=O)NC(C(C)C(=O)O)C(=O)NC(CC(=O)O)C(=O)NCC(=O)NC(CC(=O)O)C(=O)NCC(=O)NC(C(C)NC(=O)CN(C)C(=O)[C@@H](N)CCCCN)C(=O)NC(C(C)C)C(=O)N2CCCC2C(=O)NC1C (some centres unmarked)

>  <observable>
ED50 in Mice, E. faecalis (EFS0040)

>  <result-units>
mg/kg

>  <recorded-result>
3

$$$$
>  <compound>
CCCCCCCCCCCCCCC(=O)NC(CC(=O)O)C(=O)NC1C(=O)N2CCCCC2C(=O)NC(C(C)C(=O)O)C(=O)NC(CC(=O)O)C(=O)NCC(=O)NC(CC(=O)O)C(=O)NCC(=O)NC(C(C)NC(=O)CCN)C(=O)NC(C(C)C)C(=O)N2CCCC2C(=O)NC1C (centres unmarked)

>  <observable>
ED50 in Mice, E. faecalis (EFS0040)

>  <result-units>
mg/kg

>  <recorded-result>
0.8

$$$$

Query :: For E. faecalis EFS0040 (clinical isolate), give the measured ED50 in Mice, E. faecalis (EFS0040) of the entry CCCCCCCCCCCC(=O)Nc1ccc(C(=O)NC(CC(=O)O)C(=O)NC2C(=O)N3CCCCC3C(=O)NC(C(C)C(=O)O)C(=O)NC(CC(=O)O)C(=O)NCC(=O)NC(CC(=O)O)C(=O)NCC(=O)NC(C(C)NC(=O)CCN)C(=O)NC(C(C)C)C(=O)N3CCCC3C(=O)NC2C)cc1 (centres unmarked)
Result :: 2.1

Query :: Give the observed ED50 in Mice, E. faecalis (EFS0040) of CC(=O)Nc1ccc(C(=O)NC(CC(=O)O)C(=O)NC2C(=O)N3CCCCC3C(=O)NC(C(C)C(=O)O)C(=O)NC(CC(=O)O)C(=O)NCC(=O)NC(CC(=O)O)C(=O)NCC(=O)NC(C(C)N)C(=O)NC(C(C)C)C(=O)N3CCCC3C(=O)NC2C)cc1 (centres unmarked) for E. faecalis EFS0040 (clinical isolate).
Result :: 5.7

* * *

- Tested on: Staphylococcus aureus (MSSA)
- condition-details: 24 h
observable: MIC (µg/mL)
Give the value in µg/mL but do not write µg/mL after it.

Query :: Tell me MIC reported for CCCCCCCCCCCCCCC(=O)NC(CC(=O)O)C(=O)NC1C(=O)N2CCCCC2C(=O)NC(C(C)C(=O)O)C(=O)NC(CC(=O)O)C(=O)NCC(=O)NC(CC(=O)O)C(=O)NCC(=O)NC(C(C)NC(=O)[C@@H](N)C(C)C)C(=O)NC(C(C)C)C(=O)N2CCCC2C(=O)NC1C (some centres unmarked)
Result :: 4
